Listed here: items and their measured koff.
Target: T1, human transportin 1 (Trn1, residues 1-890) (human, UniProt Q92973-2 1-890)
T1 construct: transportin 1 (Trn1), human, full-length, residues 1-890; numbers count on: the 890-residue form; Cloned in pGEX-4T-3 with a TEV site; clone was a gift from Y. M. Chook; source: E. coli BL21 (DE3), purified (glutathione Sepharose, TEV cleavage, HiTrap Q FF, Superdex 200)
T1 sequence (looked up): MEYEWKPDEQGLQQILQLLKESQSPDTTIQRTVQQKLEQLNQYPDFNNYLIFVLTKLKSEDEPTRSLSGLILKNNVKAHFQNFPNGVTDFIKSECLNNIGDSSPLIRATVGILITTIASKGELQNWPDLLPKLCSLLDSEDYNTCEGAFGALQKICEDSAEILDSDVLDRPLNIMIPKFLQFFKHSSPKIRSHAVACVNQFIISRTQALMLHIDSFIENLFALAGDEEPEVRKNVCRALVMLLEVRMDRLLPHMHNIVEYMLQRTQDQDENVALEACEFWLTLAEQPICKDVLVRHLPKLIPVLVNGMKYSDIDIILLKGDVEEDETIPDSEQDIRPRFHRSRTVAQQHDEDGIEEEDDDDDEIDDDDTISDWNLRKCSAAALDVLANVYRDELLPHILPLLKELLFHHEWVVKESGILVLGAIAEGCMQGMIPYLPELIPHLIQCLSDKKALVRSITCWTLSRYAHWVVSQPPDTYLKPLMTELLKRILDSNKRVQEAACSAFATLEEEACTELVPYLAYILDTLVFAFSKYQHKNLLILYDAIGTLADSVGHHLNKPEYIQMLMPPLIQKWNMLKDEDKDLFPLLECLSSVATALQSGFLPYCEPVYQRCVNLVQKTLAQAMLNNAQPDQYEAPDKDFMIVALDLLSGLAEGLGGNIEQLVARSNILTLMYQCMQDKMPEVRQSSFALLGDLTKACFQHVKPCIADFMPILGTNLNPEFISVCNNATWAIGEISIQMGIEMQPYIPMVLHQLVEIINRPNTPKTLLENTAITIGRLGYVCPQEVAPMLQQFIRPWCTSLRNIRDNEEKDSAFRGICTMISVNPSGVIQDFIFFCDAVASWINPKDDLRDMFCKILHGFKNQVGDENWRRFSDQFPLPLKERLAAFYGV
Assay: SPR; BIAcore 3000, 25°C; Trn1 immobilised on a CM5 chip by amine coupling (about 8600 RU); FUS-NLS injected at increasing concentrations, 50 µl/min; 20 mM HEPES pH 7.3, 110 mM potassium acetate, 2 mM magnesium acetate, 2 mM EGTA, 2 mM DTT, 10% glycerol, 0.005% Tween 20; 1:1 Langmuir fit
Conditions: both partners purified
State just the number; it will be interpreted in s⁻¹.

Before answering, review these 3 worked examples.
- RGGRGGGDRGGFGPGKMDSRGEHKQDRRERPY (domain or fragment, human, UniProt P35637 495-526, looked up, ALS-associated mutation found in patients; made by site-directed mutagenesis; not shown: GST, N-terminal, cleaved) [FUS-NLS(R518K)]: 0.078
- RGGRGGGDRGGFGPGKMDPRGEHRQDRRERPY (domain or fragment, human, UniProt P35637 495-526, looked up, ALS-associated mutation found in patients; made by site-directed mutagenesis; not shown: GST, N-terminal, cleaved) [FUS-NLS(S513P)]: 0.023
- RGGRGGGDRGGFGPGKMDSRGEHRQDRRESPY (domain or fragment, human, UniProt P35637 495-526, looked up, ALS-associated mutation found in patients; made by site-directed mutagenesis; not shown: GST, N-terminal, cleaved) [FUS-NLS(R524S)]: 0.058

Consider now this further binder.
Task: # query: koff of entry RGGRGGGDRGGFGPGKMDSRGEHRQDGRERPY (domain or fragment, human, UniProt P35637 495-526, looked up, ALS-associated mutation found in patients; made by site-directed mutagenesis; not shown: GST, N-terminal, cleaved) [FUS-NLS(R521G)]
Output: 0.0034
